System: CCL-119 cells
Assay explanation: MTT cytotoxicity assay
Condition set: read-out: IC50 (µM) CCL-119; 24 hours of exposure; mean ± SEM, n = 3
Measure name: IC50 (µM)

>>> recorded_value("CC(C)N(C(=S)[S][Sn]([S]C(=S)N(C(C)C)C(C)C)([c]1ccccc1)[c]1ccccc1)C(C)C")
0.56
>>> recorded_value("CC(C)N(C(=S)[S][Sn]([CH3])([CH3])[S]C(=S)N(C(C)C)C(C)C)C(C)C")
3.1
>>> recorded_value("CCN(CC)C(=S)[S][Sn]([CH3])([CH3])[S]C(=S)N(CC)CC [ODTC 7, dimethyltin (IV) diethyl dithiocarbamate]")
0.5
>>> recorded_value("C=CCN(CC=C)C(=S)[S][Sn]([S]C(=S)N(CC=C)CC=C)([c]1ccccc1)[c]1ccccc1 [ODTC 2, diphenyltin (IV) diallyl dithiocarbamate]")
0.22

----------
Test system: CCL-119 cells
Assay explanation: Alkaline comet assay
Format: cell-based
Condition set: 1 hour of exposure; mean ± SEM
Tail moment: recorded values
Measure name: Tail moment (A.U)

>>> recorded_value("CC(C)N(C(=S)[S][Sn]([S]C(=S)N(C(C)C)C(C)C)([c]1ccccc1)[c]1ccccc1)C(C)C [ODTC 1]")
68.58
>>> recorded_value("C=CCN(CC=C)C(=S)[S][Sn]([S]C(=S)N(CC=C)CC=C)([c]1ccccc1)[c]1ccccc1 [ODTC 2, diphenyltin (IV) diallyl dithiocarbamate]")
6.83
>>> recorded_value("CC[C@]1(O)C[C@H]2CN(CCc3c([nH]c4ccccc34)[C@@](C(=O)OC)(c3cc4c(cc3OC)N(C=O)[C@H]3[C@@](O)(C(=O)OC)[C@H](OC(C)=O)[C@]5(CC)C=CCN6CC[C@]43[C@@H]65)C2)C1 [VCR, Vincristine, reference compound]")
4.17
>>> recorded_value("CCN(CC)C(=S)[S][Sn]([c]1ccccc1)([c]1ccccc1)[c]1ccccc1 [ODTC 5]")
12.61
>>> recorded_value("C=CCN(CC=C)C(=S)[S][Sn]([c]1ccccc1)([c]1ccccc1)[c]1ccccc1 [ODTC 4]")
25.83
>>> recorded_value("CC(C)N(C(=S)[S][Sn]([c]1ccccc1)([c]1ccccc1)[c]1ccccc1)C(C)C [ODTC 3]")
22.25

----------
Assay explanation: in vitro
Condition set: human, cell viability at 5.00 µM
Measure name: viability at 24 h, 5 µM

>>> recorded_value("CC[C@]1(O)C[C@H]2CN(CCc3c([nH]c4ccccc34)[C@@](C(=O)OC)(c3cc4c(cc3OC)N(C=O)[C@H]3[C@@](O)(C(=O)OC)[C@H](OC(C)=O)[C@]5(CC)C=CCN6CC[C@]43[C@@H]65)C2)C1 [VCR, Vincristine, reference compound]")
"41.6%"

----------
System: CCL-119 cells
Assay explanation: Mode of cell death, Annexin V-FITC/PI staining (flow cytometry)
Type: cell-based
Condition set: 24 hours, treated at IC50; early + late apoptosis
Measure name: cell death through apoptosis (population of cells)

>>> recorded_value("CC(C)N(C(=S)[S][Sn]([S]C(=S)N(C(C)C)C(C)C)([c]1ccccc1)[c]1ccccc1)C(C)C [ODTC 1]")
"77.6%"
>>> recorded_value("C=CCN(CC=C)C(=S)[S][Sn]([S]C(=S)N(CC=C)CC=C)([c]1ccccc1)[c]1ccccc1 [ODTC 2, diphenyltin (IV) diallyl dithiocarbamate]")
"66.3%"
>>> recorded_value("CC(C)N(C(=S)[S][Sn]([CH3])([CH3])[S]C(=S)N(C(C)C)C(C)C)C(C)C [ODTC 6]")
"74.2%"
>>> recorded_value("CC[C@]1(O)C[C@H]2CN(CCc3c([nH]c4ccccc34)[C@@](C(=O)OC)(c3cc4c(cc3OC)N(C=O)[C@H]3[C@@](O)(C(=O)OC)[C@H](OC(C)=O)[C@]5(CC)C=CCN6CC[C@]43[C@@H]65)C2)C1 [VCR, Vincristine, reference compound]")
"56.46%"
>>> recorded_value("CCN(CC)C(=S)[S][Sn]([CH3])([CH3])[S]C(=S)N(CC)CC [ODTC 7, dimethyltin (IV) diethyl dithiocarbamate]")
"95.6%"

----------
Assay explanation: in vitro
Condition set: human, cell viability at 1.25 µM
Measure name: viability at 24 h, 1.25 µM (%)

>>> recorded_value("CC[C@]1(O)C[C@H]2CN(CCc3c([nH]c4ccccc34)[C@@](C(=O)OC)(c3cc4c(cc3OC)N(C=O)[C@H]3[C@@](O)(C(=O)OC)[C@H](OC(C)=O)[C@]5(CC)C=CCN6CC[C@]43[C@@H]65)C2)C1 [VCR, Vincristine, reference compound]")
46.3
